These measurements were taken from patent US20100056515A1.

Each entry below carries its recorded melting point.

# Compound, melting point
records = [
    ("CCC(CC)c1ccc(Cl)c2nc(Oc3c(Cl)cc(Cl)cc3CN3CCCC3)n(C)c12 [Example 78]", "122 to 123 °C"),
    ("CCc1ccc(C(CC)CC)c2c1nc(Oc1c(C)cc(Cl)cc1Cl)n2C [Example 71]", "96 to 97 °C"),
    ("CCC(CO)c1ccc(Cl)c2nc(Oc3c(C)cc(Cl)cc3Cl)n(C)c12 (centres unmarked) [Example 94]", "208 to 209 °C"),
    ("CCC(CC)c1ccc(OC)c2nc(Oc3c(C)cc(OC(F)(F)F)cc3CN(C)C)n(C)c12.Cl [Example 15]", "92 to 94 °C"),
    ("CCC(CC)c1ccc(Cl)c2nc(Oc3c(Cl)cc(Cl)cc3N3CCCC3)n(C)c12 [Example 29]", "209 to 210 °C"),
    ("CCC(CC)c1ccc(Cl)c2nc(Oc3c(Cl)cc(Cl)cc3N3CCOCC3)n(C)c12 [Example 25]", "155 to 157 °C"),
    ("CCC(CC)c1ccc(OC)c2nc(Oc3ccc(OC(F)(F)F)cc3N(C)C)n(C)c12 [Example 30]", "93 to 95 °C"),
    ("CCC(CC)c1ccc(OC)c2nc(Oc3ccc(C)nc3C(F)(F)F)n(C)c12 [Example 11]", "135 to 137 °C"),
    ("CCC(CC)c1ccc(Cl)c2nc(Oc3c(Cl)cc(OC(F)(F)F)cc3SC)n(C)c12 [Example 42]", "138 to 139 °C"),
    ("CCC(CC)c1ccc(OC)c2nc(Oc3ccc(C)nc3N(C)C)n(C)c12 [Example 5]", "143 to 144 °C"),
    ("CCC(CC)c1ccc(OC)c2nc(Oc3ccc(N(C)C)cc3Cl)n(C)c12 [Example 3]", "122 to 123 °C"),
    ("CCC(CC)c1ccc(Cl)c2nc(Oc3c(Cl)cc(Cl)cc3S(N)(=O)=O)n(C)c12 [Example 32]", "133 to 134 °C"),
    ("CCC(CC)c1ccc(Cl)c2nc(Oc3c(C)cc([Si](C)(C)C)cc3Cl)n(C)c12", "146 to 148 °C"),
    ("CCC(CC(=O)O)c1ccc(Cl)c2nc(Oc3c(C)cc(Cl)cc3Cl)n(C)c12 (centres unmarked) [Example 99]", "201 to 202 °C"),
    ("CCC(CC)c1ccc(OC)c2nc(Oc3ccc(C(F)(F)F)cc3N(C)C)n(C)c12 [Example 12]", "131 to 133 °C"),
    ("CCOc1ccc(C(CC)CC)c2c1nc(Oc1ccc(Cl)cc1Br)n2C [Example 72]", "93 to 94 °C"),
    ("CCC(CC)c1ccc(Cl)c2nc(Oc3c(Cl)cc(Cl)cc3Br)n(C)c12 [Example 23]", "165 to 167 °C"),
]
